Reference for the values: patent US20240209076A1

I'd be grateful if you could share measured kon for these entries.
# assay.target: T1, recombinant human IL-6 (human, UniProt P05231 30-212)
# T1 construct: Flowed in solution over the captured antibodies
# T1 sequence (P05231 30-212 limits assumed): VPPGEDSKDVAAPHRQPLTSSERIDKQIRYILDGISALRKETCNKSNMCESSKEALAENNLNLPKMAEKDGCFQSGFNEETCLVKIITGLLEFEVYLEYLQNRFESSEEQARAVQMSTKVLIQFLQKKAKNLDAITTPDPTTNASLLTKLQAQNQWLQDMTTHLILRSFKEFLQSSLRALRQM
# test.description: SPR (Biacore), purified IgG on Protein A, 37 C
Answers are plain numbers, in M⁻¹ s⁻¹.

# binder, kon, M⁻¹ s⁻¹
rows = [
    ("anti-IL-6 antibody, heavy chain L106F, light chain WT (antibody, IgG1, V domains shown, Full IgG1 tested; V domains derived as in m2) VH: EVQLVESGGGLVQPGGSLRLSCAASGFTFSPFAMSWVRQAPGKGLEWVAKISPGGSWTYYSDTVTGRFTFSLDTSKSTAYLQMNSLRAEDTAVYYCARQLWGYYAFDIWGQGTLVTVSS VL: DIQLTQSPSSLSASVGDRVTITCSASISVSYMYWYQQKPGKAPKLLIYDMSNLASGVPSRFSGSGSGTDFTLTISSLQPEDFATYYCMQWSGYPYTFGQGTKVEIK", 852000),
]

Next, consider the following binder.
*Q* Entry anti-IL-6 antibody, heavy chain F29H, light chain WT (antibody, IgG1, V domains shown, Full IgG1 tested; V domains derived as in m2) VH: EVQLVESGGGLVQPGGSLRLSCAASGFTHSPFAMSWVRQAPGKGLEWVAKISPGGSWTYYSDTVTGRFTFSLDTSKSTAYLQMNSLRAEDTAVYYCARQLWGYYALDIWGQGTLVTVSS VL: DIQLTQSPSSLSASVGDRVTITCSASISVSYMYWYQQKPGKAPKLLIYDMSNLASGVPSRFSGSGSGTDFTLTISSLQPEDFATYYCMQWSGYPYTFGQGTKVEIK needs its kon filled in; supply it.
*A* 850000
